Measured values drawn from the supplement of paper PMC13207355 for this set.

Provide the recorded phenotypic distance for the entries that follow.
Test system: E28 (patient-derived glioblastoma stem cells of classical subtype)
Assay Name: phenotypic distance (Euclidean, principal components) from DMSO controls (arbitrary units); higher = stronger morphological change
Experimental Context: 4.1 nM; exposure time: 72 h
Where a name gives a salt, the structure may show the parent alone.
// return a plain number; no unit text

(Q) # query: phenotypic distance | item Cc1c(-c2ccc(-c3ccccc3F)cc2)nc2ccc(F)cc2c1C(=O)O [Brequinar sodium salt hydrate] | system: E28
(A) 1.07

(Q) # query: phenotypic distance | item C=CC(=O)Nc1cc(Nc2nccc(-c3cn(C)c4ccccc34)n2)c(OC)cc1N(C)CCN(C)C [Osimertinib mesylate] | system: E28
(A) 0.567

(Q) # query: phenotypic distance | item `Cc1ccc2c(c1)C1(CCN(CCc3nc(-c4ccccc4)oc3C)CC1)OC(=O)N2` | system: E28
(A) 0.761

(Q) # query: phenotypic distance | item COc1ccc(C(=O)CC(=O)c2ccc(C(C)(C)C)cc2)cc1 [Avobenzone] | system: E28
(A) 1.01

(Q) # query: phenotypic distance | item CC(=O)O[C@@]12CO[C@@H]1C[C@H](O)[C@@]1(C)C(=O)[C@H](O)C3=C(C)[C@@H](OC(=O)[C@H](O)[C@@H](NC(=O)OC(C)(C)C)c4ccccc4)C[C@@](O)([C@@H](OC(=O)c4ccccc4)[C@H]21)C3(C)C [Docetaxel] | system: E28
(A) 3.2

(Q) # query: phenotypic distance | item S=c1[nH]cnc2nc[nH]c12 [Mercaptopurine] | system: E28
(A) 0.534

(Q) # query: phenotypic distance | item CCC(=O)OCC(=O)[C@@]1(OC(=O)CC)[C@H](C)C[C@H]2[C@H]3[C@H]([C@@H](O)C[C@@]21C)[C@@]1(C)C=CC(=O)C=C1C[C@H]3Cl [Alclometasone dipropionate] | system: E28
(A) 0.573

(Q) # query: phenotypic distance | item `CC[n+]1c(/C=C/C=C2/N(C)c3ccccc3C2(C)C)sc2ccccc21` | system: E28
(A) 0.748

(Q) # query: phenotypic distance | item CCC(C)(C)C(=O)O[C@H]1C[C@@H](C)C=C2C=C[C@H](C)[C@H](CC[C@@H]3C[C@@H](O)CC(=O)O3)[C@H]21 [Simvastatin] | system: E28
(A) 1.08

* * *

Test system: E28
Assay Name: surviving fraction (nuclei count normalised to DMSO); higher = more cells surviving (less toxic)
Experimental Context: 37 nM; exposure time: 72 h
Where a name gives a salt, the structure may show the parent alone.
Provide the recorded surviving fraction for the entries that follow.
// return a plain number; no unit text

(Q) What does the data say about its surviving fraction? Entry: `CCc1c2c(nc3ccc(OC(=O)N4CCC(N5CCCCC5)CC4)cc13)-c1cc3c(c(=O)n1C2)COC(=O)[C@]3(O)CC`
(A) 1.07

(Q) What does the data say about its surviving fraction? Entry: CCCCCCCCCCCCCC(=O)O[C@@H]1[C@@H](C)[C@@]2(O)[C@@H](C=C(CO)C[C@]3(O)C(=O)C(C)=C[C@@H]23)[C@@H]2C(C)(C)[C@]12OC(C)=O [Phorbol 12-myristate 13-acetate]
(A) 0.725

(Q) What does the data say about its surviving fraction? Entry: CC[C@H]1CN2CCc3cc(OC)c(OC)cc3[C@@H]2C[C@@H]1C[C@H]1NCCc2cc(OC)c(OC)cc21 [Emetine dihydrochloride hydrate]
(A) 0.901

(Q) What does the data say about its surviving fraction? Entry: CC1(C)S[C@@H]2[C@H](NC(=O)Cc3ccccc3)C(=O)N2[C@H]1C(=O)O [Benzylpenicillin sodium]
(A) 1.38

(Q) What does the data say about its surviving fraction? Entry: CCCCCC[C@H]1C(=O)O[C@H](C)[C@H](NC(=O)c2cccc(NC=O)c2O)C(=O)O[C@@H](C)[C@@H]1OC(=O)CC(C)C [Antimycin A]
(A) 0.625

(Q) What does the data say about its surviving fraction? Entry: `Nc1ncnc2c1c(-c1ccc(Oc3ccccc3)cc1)cn2C1CCCC1`
(A) 0.988

(Q) What does the data say about its surviving fraction? Entry: `NC(=O)c1cccc2cn(-c3ccc([C@@H]4CCCNC4)cc3)nc12`
(A) 0.875

(Q) What does the data say about its surviving fraction? Entry: `Oc1ccc(OCc2ccccc2)cc1`
(A) 1.12

(Q) What does the data say about its surviving fraction? Entry: `C[C@H](NC(=O)[C@@H](O)c1cc(F)cc(F)c1)C(=O)N[C@@H]1C(=O)N(C)c2ccccc2-c2ccccc21`
(A) 0.942

(Q) What does the data say about its surviving fraction? Entry: `CC(C)CC(=O)N[C@H](C(=O)N[C@H](C(=O)N[C@@H](CC(C)C)[C@@H](O)CC(=O)N[C@@H](C)C(=O)N[C@@H](CC(C)C)[C@@H](O)CC(=O)O)C(C)C)C(C)C`
(A) 1.14

(Q) What does the data say about its surviving fraction? Entry: CC1=C(/C=C/C(C)=C/C=C/C(C)=C/C(=O)Nc2ccc(O)cc2)C(C)(C)CCC1 [Retinoic acid p-hydroxyanilide]
(A) 1.13

(Q) What does the data say about its surviving fraction? Entry: COc1cc(OC)c(C(=O)CCCN2CCCC2)c(OC)c1 [Buflomedil hydrochloride]
(A) 0.856

(Q) What does the data say about its surviving fraction? Entry: `CN[C@@H](C)C(=O)N[C@H](C(=O)N1CCC[C@H]1C(=O)N[C@H]1c2ccccc2C[C@H]1OCC#CC#CCO[C@@H]1Cc2ccccc2[C@@H]1NC(=O)[C@@H]1CCCN1C(=O)[C@@H](NC(=O)[C@H](C)NC)C1CCCCC1)C1CCCCC1`
(A) 0.978

* * *

Tested on: E57 (patient-derived glioblastoma stem cells of mesenchymal subtype)
Assay Name: surviving fraction (nuclei count normalised to DMSO); higher = more cells surviving (less toxic)
Experimental Context: 12.3 nM; exposure time: 72 h
Counter-ions that a name gives are not always drawn.
Provide the recorded surviving fraction for the entries that follow.
// return a plain number; no unit text

(Q) What does the data say about its surviving fraction? Entry: CC(C)C[C@H]1C(=O)N2CCC[C@H]2[C@]2(O)O[C@](NC(=O)[C@@H]3C=C4c5cccc6[nH]c(Br)c(c56)C[C@H]4N(C)C3)(C(C)C)C(=O)N12 [Bromocryptine mesylate]
(A) 1.13

(Q) What does the data say about its surviving fraction? Entry: `C[C@H]1O[C@@H](O[C@H]2[C@@H](O)C[C@H](O[C@H]3[C@@H](O)C[C@H](O[C@H]4CC[C@@]5(C)[C@H](CC[C@@H]6[C@@H]5C[C@@H](O)[C@]5(C)[C@@H](C7=CC(=O)OC7)CC[C@]65O)C4)O[C@@H]3C)O[C@@H]2C)C[C@H](O)[C@@H]1O`
(A) 0.74

(Q) What does the data say about its surviving fraction? Entry: CC(C)NCC(O)COc1cccc2ccccc12 (centres undefined) [Propranolol hydrochloride]
(A) 0.959

(Q) What does the data say about its surviving fraction? Entry: `CN(C(=O)CN(CCO)CC(=O)N(C)C(C)(C)Cc1ccccc1)C(C)(C)Cc1ccccc1`
(A) 0.936

(Q) What does the data say about its surviving fraction? Entry: COc1ccc(/C=C\c2cc(OC)c(OC)c(OC)c2)cc1OP(=O)(O)O [Fosbretabulin Disodium]
(A) 0.934

(Q) What does the data say about its surviving fraction? Entry: `O=C1CC[C@@H](C(=O)N2CSC[C@H]2C(=O)O)N1`
(A) 0.938

(Q) What does the data say about its surviving fraction? Entry: `COc1cc(/C=C/C(=O)N2CCC=CC2=O)cc(OC)c1OC`
(A) 0.96

(Q) What does the data say about its surviving fraction? Entry: CC(=O)CC(c1ccc([N+](=O)[O-])cc1)c1c(O)c2ccccc2oc1=O (centres undefined)
(A) 1.09

(Q) What does the data say about its surviving fraction? Entry: `O=c1[nH]c(=O)n([C@H]2C[C@H](O)[C@@H](CO)O2)cc1I`
(A) 1.02

* * *

Test system: E34 (patient-derived glioblastoma stem cells of proneural subtype)
Assay Name: surviving fraction (nuclei count normalised to DMSO); higher = more cells surviving (less toxic)
Experimental Context: 12.3 nM; exposure time: 72 h
Where a name gives a salt, the structure may show the parent alone.
Property Label: surviving fraction
// return a plain number; no unit text

(Q) What does the data say about its surviving fraction? Entry: `OCCN1CCN(CCCN2c3ccccc3Sc3ccc(Cl)cc32)CC1`
(A) 1.05

(Q) What does the data say about its surviving fraction? Entry: `CN[C@@H](C)C(=O)N[C@H](C(=O)N1CCC[C@H]1C(=O)N[C@H]1c2ccccc2C[C@H]1OCC#CC#CCO[C@@H]1Cc2ccccc2[C@@H]1NC(=O)[C@@H]1CCCN1C(=O)[C@@H](NC(=O)[C@H](C)NC)C1CCCCC1)C1CCCCC1`
(A) 0.838

(Q) What does the data say about its surviving fraction? Entry: CCOC(=O)OC(C)OC(=O)[C@@H]1N2C(=O)[C@@H](NC(=O)[C@H](N)c3ccccc3)[C@H]2SC1(C)C (some centres not stated) [Bacampicillin hydrochloride]
(A) 1.02

(Q) What does the data say about its surviving fraction? Entry: `CC(C)C[C@@H](C(=O)N[C@H](C(=O)OC1CCCC1)c1ccccc1)[C@H](O)C(=O)NO`
(A) 0.827

(Q) What does the data say about its surviving fraction? Entry: CN(C)CCN(Cc1ccc(Cl)cc1)c1ccccn1 [Chloropyramine hydrochloride]
(A) 0.964

(Q) What does the data say about its surviving fraction? Entry: `CC[C@@]1(O)C(=O)OCc2c1cc1n(c2=O)Cc2cc3c(CN(C)C)c(O)ccc3nc2-1`
(A) 0.576

(Q) What does the data say about its surviving fraction? Entry: `O=c1[nH]c(=O)n([C@H]2C[C@H](O)[C@@H](CO)O2)cc1I`
(A) 1
